The entries below come with measured MIC values attached.
Tested on: Pseudomonas aeruginosa PA01
Assay: Serum MIC, broth micro-dilution
Format: cell-based
Details: Pseudomonas aeruginosa, PA01, 22 h, read-out: P. aeruginosa 01 Serum MIC
Protocol: In vitro antimicrobial activity of each compound was determined by measuring minimal inhibitor concentrations (MICs) using the broth micro-dilution technique as approved by the Clinical and Laboratory Standards Institute (CLSI) (Methods for Dilution Antimicrobial Susceptibility Tests for Bacteria that Grow Aerobically; Approved Standard—Eighth Edition. CLSI document M07-A8. Wayne, Pa.: Clinical and Laboratory Standards; 2009). […]
Quantity: MIC (µM)

Compound: C[C@@H]1NC(=O)[C@@H](N(C)C(=O)[C@H](CCN)NC(=O)c2cnn(-c3ccc(C(C)(C)C)cc3)c(=O)c2)c2cc(OC[C@H](O)CN)c(O)c(c2)-c2cc(ccc2OC[C@H](O)CN)C[C@@H](C(=O)O)NC1=O [Example 17]
Quantity: MIC
Unit Of Measure: µM
Test Value: 64

Compound: Cc1nc(-c2ccc(OC(C)C)cc2)ncc1C(=O)N[C@@H](CNS(N)(=O)=O)C(=O)N(C)[C@@H]1C(=O)N[C@@H](C)C(=O)N[C@H](C(=O)O)Cc2ccc(OC[C@H](O)CN)c(c2)-c2cc1cc(OC[C@H](O)CN)c2O [Example 14]
Quantity: MIC
Unit Of Measure: µM
Test Value: 48

Provenance of the data: patent US11208387B2
